Assay: Appearance of the solution when the preservative is used in the EPO formulation
Assay type: physicochemical
Details: preservative in EPO formulation (phosphate buffer, polysorbate 20, sodium chloride, pH approx. 7.0)
ASSAY READOUT: appearance of solution

CCCOC(=O)c1ccc(O)cc1 : hazy to cloudy
COC(=O)c1ccc(O)cc1 : hazy to cloudy
C[CH2][Hg][S]c1ccccc1C(=O)[O-].[Na+] : clear
Cc1cccc(O)c1 : hazy to cloudy
